Reference for the values: patent US20110060021A1

test system: NCI-60 cancer cell lines; settings: read-out: LC50, median concentration; five-dose assay; 17 (A) / 20 (B) cell lines completely killed
assay endpoint: CC50

structure_smiles=CCCC[C@H]1NC(=O)C[C@H]2/C=C/CCSSC[C@@H](NC1=O)C(=O)N[C@H]([C@@H](C)CC)[C@@H](O)CC(=O)O2 observed_measurement="≤ 6.92 µM"

Okay, next one:
QUERY: Value wanted: CC50 (NCI-60 cancer cell lines) of entry CC[C@H](C)[C@H]1NC(=O)[C@H]2CSSCC/C=C/[C@H](CC(=O)N[C@H](CCSC)C(=O)N2)OC(=O)C[C@@H]1O
RESULT: ≤ 3.89 µM
